# method description: Thermodynamic solubility
# Type: physicochemical
# stated conditions: Fed State Simulated Intestine Fluid (FeSSIF), 37 °C, fessif, thermodynamic from solid, Fed State Simulated Intestine Fluid, read-out: Tsol FeSSIF
reported property: solubility thermodynamic at 24 h (mg/mL)

>>> data_value("COc1cc2nc(C3COCCO3)cn2cc1NC(=O)c1cccn(C2CC2)c1=O (single isomer, unassigned) [Compound 8]")
0.208
>>> data_value("COc1cc2nc(C3CCS(=O)(=O)CC3)cn2cc1NC(=O)c1cccn(C2CC2)c1=O [Compound 23]")
0.27

====

Consider compounds characterized by their IC50 with human IRAK-4 (Homo sapiens, UniProt Q9NWZ3).
Sequence (Q9NWZ3 whole entry): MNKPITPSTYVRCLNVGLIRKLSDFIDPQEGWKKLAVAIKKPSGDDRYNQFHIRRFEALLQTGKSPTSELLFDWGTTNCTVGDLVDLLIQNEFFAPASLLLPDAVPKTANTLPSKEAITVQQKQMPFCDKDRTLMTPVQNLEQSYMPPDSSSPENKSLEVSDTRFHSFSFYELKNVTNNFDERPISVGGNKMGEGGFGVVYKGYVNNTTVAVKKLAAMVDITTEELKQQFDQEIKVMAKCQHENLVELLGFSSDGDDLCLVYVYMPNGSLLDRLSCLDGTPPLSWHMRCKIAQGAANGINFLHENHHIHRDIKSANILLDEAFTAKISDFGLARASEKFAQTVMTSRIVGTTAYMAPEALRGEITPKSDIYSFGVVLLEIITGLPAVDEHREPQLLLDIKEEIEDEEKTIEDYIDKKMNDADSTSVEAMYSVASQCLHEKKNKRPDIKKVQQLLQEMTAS

Worked set:
>>> data_value("COc1cc2nc(C3COCCO3)cn2cc1NC(=O)c1cccn(C2CC2)c1=O (racemic) [Compound 1]")
"5 to 10 nM"
>>> data_value("COc1cc2nc(C3COCCO3)cn2cc1NC(=O)c1cccn(C2CC2)c1=O (single isomer, unassigned) [Compound 8]")
"5 to 10 nM"
>>> data_value("CC(C)(C)NC(=O)c1cc2nc(C3CCOCC3)cn2cc1NC(=O)c1cccc(C(F)(F)F)n1")
"10 to 50 nM"

We now examine a further compound.
Provide human IRAK-4 (Homo sapiens, UniProt Q9NWZ3) IC50 reading for O=C(Nc1cn2cc(C3CCOCC3)nc2cc1C(=O)NCC(F)(F)F)c1cccc(C(F)(F)F)n1 .
10 to 50 nM
